- system: Cytoplasmic tyrosine-protein kinase BMX (Homo sapiens) (UniProt P51813)
- Sequence (whole entry): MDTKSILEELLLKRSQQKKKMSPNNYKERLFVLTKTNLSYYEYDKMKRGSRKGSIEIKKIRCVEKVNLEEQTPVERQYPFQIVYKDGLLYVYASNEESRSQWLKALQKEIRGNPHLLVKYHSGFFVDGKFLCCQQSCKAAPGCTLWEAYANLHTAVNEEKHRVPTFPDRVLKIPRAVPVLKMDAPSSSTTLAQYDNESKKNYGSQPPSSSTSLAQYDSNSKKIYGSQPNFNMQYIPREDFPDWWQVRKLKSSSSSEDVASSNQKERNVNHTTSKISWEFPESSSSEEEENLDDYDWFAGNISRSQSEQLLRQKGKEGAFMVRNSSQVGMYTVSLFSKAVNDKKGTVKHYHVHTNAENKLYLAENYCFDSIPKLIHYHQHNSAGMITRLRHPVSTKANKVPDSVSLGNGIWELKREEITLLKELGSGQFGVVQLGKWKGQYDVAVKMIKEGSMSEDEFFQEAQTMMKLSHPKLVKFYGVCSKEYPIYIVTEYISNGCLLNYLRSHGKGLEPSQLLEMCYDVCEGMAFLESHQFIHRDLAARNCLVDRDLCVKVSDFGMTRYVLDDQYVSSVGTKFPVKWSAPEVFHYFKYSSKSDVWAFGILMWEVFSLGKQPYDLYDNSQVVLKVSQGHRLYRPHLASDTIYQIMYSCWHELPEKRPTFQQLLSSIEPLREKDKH
- conditions: at 0.1 µM
- Description: GSK_PKIS: BMX mean inhibition at 0.1 uM [Nanosyn]
Recorded inhibition by entry
readout-name: inhibition

given-smiles	value-observed
O=C(Nc1n[nH]c2cc(-c3cc(F)ccc3F)ccc12)C1CC1	1.69%
COc1cccc(-n2cnc3c(N/N=C/c4ccncc4)ncnc32)c1	-0.75%
CCC(=O)Nc1ccc(C)c(-c2ccc(C(=O)NCC3CC3)cc2)c1	1.57%
COc1ccc2ncn(-c3cc(O[C@H](C)c4ccccc4Cl)c(C(N)=O)s3)c2c1	3.14%
C/C(Nc1ccc(S(N)(=O)=O)cc1)=C1/C(=O)Nc2ccccc21	-4.07%
CN1CCN(CCCNc2nc3ccc(Oc4ccc(NC(=O)Nc5cc(C(F)(F)F)ccc5F)cc4)cc3[nH]2)CC1	-1.87%
Fc1ccc(-c2c(-c3ccncc3)nc3n2CCS3)cc1	1.44%
COc1cc2ncn(-c3cc(OCc4cccs4)c(C(N)=O)s3)c2cc1OC	-4.41%
Fc1ccc(-c2ncn(C3CCNCC3)c2-c2ccnc(Oc3ccc(Oc4ccccc4)cc3)n2)cc1	3.11%
NC(=O)c1cc(-c2ccc(F)cc2)cc(-c2ccncc2)c1N	7.08%

###

- system: Proto-oncogene tyrosine-protein kinase receptor Ret (Homo sapiens) (UniProt P07949);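 further: reported figure is the mean of RET inhibition measurements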
- Sequence (P07949 whole entry): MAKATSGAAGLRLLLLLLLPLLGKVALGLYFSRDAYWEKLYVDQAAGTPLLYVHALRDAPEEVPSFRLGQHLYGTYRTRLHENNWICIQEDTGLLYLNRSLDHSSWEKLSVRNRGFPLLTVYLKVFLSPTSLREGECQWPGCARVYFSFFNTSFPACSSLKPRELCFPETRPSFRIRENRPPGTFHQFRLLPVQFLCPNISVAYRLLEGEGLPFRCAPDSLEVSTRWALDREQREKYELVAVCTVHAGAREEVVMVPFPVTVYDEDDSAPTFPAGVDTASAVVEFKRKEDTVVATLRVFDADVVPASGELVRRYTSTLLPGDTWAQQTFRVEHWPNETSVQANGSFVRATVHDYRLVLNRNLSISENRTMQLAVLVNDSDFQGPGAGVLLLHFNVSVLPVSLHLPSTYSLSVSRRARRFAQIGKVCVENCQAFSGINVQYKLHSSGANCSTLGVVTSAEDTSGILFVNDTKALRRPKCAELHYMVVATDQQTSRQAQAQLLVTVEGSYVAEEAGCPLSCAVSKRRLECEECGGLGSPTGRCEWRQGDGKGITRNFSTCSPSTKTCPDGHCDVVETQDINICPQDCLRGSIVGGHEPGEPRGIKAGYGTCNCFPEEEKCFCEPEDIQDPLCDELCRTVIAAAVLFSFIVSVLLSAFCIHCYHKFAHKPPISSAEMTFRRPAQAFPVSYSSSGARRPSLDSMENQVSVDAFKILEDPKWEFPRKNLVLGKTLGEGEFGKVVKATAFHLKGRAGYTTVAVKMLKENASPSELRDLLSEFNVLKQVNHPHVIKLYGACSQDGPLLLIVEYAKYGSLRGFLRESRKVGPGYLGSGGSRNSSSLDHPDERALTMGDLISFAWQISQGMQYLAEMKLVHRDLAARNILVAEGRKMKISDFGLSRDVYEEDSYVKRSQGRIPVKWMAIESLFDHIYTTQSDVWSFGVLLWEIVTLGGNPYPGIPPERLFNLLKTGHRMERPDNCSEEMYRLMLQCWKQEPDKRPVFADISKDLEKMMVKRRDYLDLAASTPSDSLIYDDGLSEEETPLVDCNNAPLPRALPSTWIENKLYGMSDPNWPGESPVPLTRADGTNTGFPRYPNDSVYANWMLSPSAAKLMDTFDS
- conditions: at 0.1 µM
// reported inhibition for each item listed

given-smiles	inhibition [%]
C[C@@H](Oc1cc(-n2cnc3ccc(OC4CCN(C)CC4)cc32)sc1C(N)=O)c1ccccc1Cl	3.19
NC(=O)Cc1ccccc1Oc1nccc(-c2c(-c3ccc(F)cc3)ncn2C2CCNCC2)n1	5.79
NS(=O)(=O)c1ccc(N/N=C2\C(=O)Nc3ccc(C(=O)NCCCn4ccnc4)cc32)cc1	12.5
NS(=O)(=O)c1ccc(N/N=C2\C(=O)Nc3ccc(-c4cnco4)cc32)cc1	7.98
CCN(CC)Cc1ccc(Nc2nccc(-c3cnn4ncccc34)n2)cc1	4.61
NCc1ccc(-n2c(-c3nonc3N)nc3cnccc32)cc1	5.69
Fc1ccc(-c2ncn(CCCN3CCOCC3)c2-c2ccncc2)cc1	0.8
Fc1ccc(-c2c(-c3ccncc3)nc3n2CCS3)cc1	1.13
CS(=O)(=O)CCNCc1ccc(-c2ccc3ncnc(Nc4ccc(OCc5ccccc5)c(Br)c4)c3c2)o1	7.14

Values from ChEMBL document CHEMBL1961873
